// reported melting point per item

[[record]]
compound = "COc1ccc(CNc2nc(NCc3ccccc3)nc3c2ncn3CC(C)C)cc1 [Compound 4i]"
experimental_value = "110 to 112 °C"

[[record]]
compound = "CCCCn1cnc2c(NCc3ccccc3)nc(NCc3ccccc3)nc21 [Compound 4b]"
experimental_value = "113 to 115 °C"

[[record]]
compound = "CC(C)CCn1cnc2c(NCc3ccccc3)nc(NCc3ccccc3)nc21 [Compound 4e]"
experimental_value = "69 to 70 °C"

[[record]]
compound = "CCCCCn1cnc2c(NCc3ccccc3)nc(NCc3ccccc3)nc21 [Compound 4d]"
experimental_value = "83 to 86 °C"


Look up melting point: CC(C)Cn1cnc2c(NCc3ccccc3)nc(NCc3ccccc3)nc21 [Compound 4c]
111 to 113 °C

Look up melting point: COc1ccc(CNc2nc(NCc3ccccc3)nc3c2ncn3C(C)C)cc1 [Compound 4g]
69 to 70 °C

====

// reported IC50 per item
# System: HL-60 (leukemia) cells
# test-protocol: MTT cytotoxicity assay on HL-60 cells
# Assay type: cell-based, human
# stated-conditions: Homo sapiens, HL-60, 72 h, 72 h continuous exposure, triplicate, range 0.05 to 50 µM

[[record]]
molecule = "COc1ccc(CNc2nc(NCc3ccccc3)nc3c2ncn3C(C)C)cc1"
target_desc = "HL-60 (leukemia) cells"
experimental_value = "22 µM"


Look up IC50: COc1cc([C@@H]2c3cc4c(cc3[C@@H](O[C@@H]3O[C@@H]5CO[C@@H](C)O[C@H]5[C@H](O)[C@H]3O)[C@H]3COC(=O)[C@H]23)OCO4)cc(OC)c1O [Etoposide, reference compound]
6.2 µM

Look up IC50: CCCCCCn1cnc2c(NCc3ccc(OC)cc3)nc(NCc3ccccc3)nc21
> 50 µM

Look up IC50: CCCCn1cnc2c(NCc3ccccc3)nc(NCc3ccccc3)nc21
> 50 µM

====

// reported Selectivity Index (SI) (Vero/HeLa) per item
# Test system: HeLa cells
# test-protocol: MTT cytotoxicity assay on HeLa cells
# Assay type: cell-based, human
# stated-conditions: ratio IC50 (Vero)/IC50 (HeLa)
The answer should be a number; do not append a unit.

Some entries whose results are on file:
[[record]]
compound = "CC(C)n1cnc2c(NCc3ccccc3)nc(NCc3ccccc3)nc21 [Compound 4a]"
experimental_value = 0.63

[[record]]
compound = "CCCCCCn1cnc2c(NCc3ccccc3)nc(NCc3ccccc3)nc21 [Compound 4f]"
experimental_value = 4.91

[[record]]
compound = "CCCCCn1cnc2c(NCc3ccc(OC)cc3)nc(NCc3ccccc3)nc21 [Compound 4j]"
experimental_value = 2.74


Continue with the compound presented below.
Recorded Selectivity Index (SI) (Vero/HeLa) for CCCCn1cnc2c(NCc3ccccc3)nc(NCc3ccccc3)nc21 [Compound 4b] with HeLa cells, please?
0.31

====

# System: HCT116 (colorectal) cells
# test-protocol: MTT cytotoxicity assay on HCT116 cells
# Assay type: cell-based, human
# stated-conditions: ratio IC50 (Vero)/IC50 (HCT116)
reported-metric: Selectivity Index (SI) (Vero/HCT116)
The answer should be a number; do not append a unit.

Some entries whose results are on file:
[[record]]
smiles_structure = "CC(C)CCn1cnc2c(NCc3ccccc3)nc(NCc3ccccc3)nc21"
reported_metric = "Selectivity Index (SI) (Vero/HCT116)"
experimental_value = 0.49

[[record]]
smiles_structure = "CCCCn1cnc2c(NCc3ccccc3)nc(NCc3ccccc3)nc21"
reported_metric = "Selectivity Index (SI) (Vero/HCT116)"
experimental_value = 0.78

[[record]]
smiles_structure = "CCCCCn1cnc2c(NCc3ccc(OC)cc3)nc(NCc3ccccc3)nc21"
reported_metric = "Selectivity Index (SI) (Vero/HCT116)"
experimental_value = 3.25

[[record]]
smiles_structure = "CC(C)n1cnc2c(NCc3ccccc3)nc(NCc3ccccc3)nc21"
reported_metric = "Selectivity Index (SI) (Vero/HCT116)"
experimental_value = 1.54

[[record]]
smiles_structure = "COc1ccc(CNc2nc(NCc3ccccc3)nc3c2ncn3CC(C)C)cc1"
reported_metric = "Selectivity Index (SI) (Vero/HCT116)"
experimental_value = 1.19


Look up Selectivity Index (SI) (Vero/HCT116): COc1ccc(CNc2nc(NCc3ccccc3)nc3c2ncn3CCC(C)C)cc1
3.09

Look up Selectivity Index (SI) (Vero/HCT116): CCCCCn1cnc2c(NCc3ccccc3)nc(NCc3ccccc3)nc21
0.23

Look up Selectivity Index (SI) (Vero/HCT116): CCCCCCn1cnc2c(NCc3ccccc3)nc(NCc3ccccc3)nc21
8.67

Look up Selectivity Index (SI) (Vero/HCT116): COc1ccc(CNc2nc(NCc3ccccc3)nc3c2ncn3C(C)C)cc1
2.11
